Target: Trf4 NIM peptide (S. cerevisiae)
Assay: fluorescence polarisation; fluorescence anisotropy, equilibrium binding of Nrd1 CID variants to FAM-labelled NIM peptides; 10°C, 50 mM Na2HPO4, 100 mM NaCl, pH 8; 1:1 model with non-specific binding (DynaFit)
reported-endpoint: Kd (µM)

Nrd1 CID M126A (domain or fragment) MQQDDDFQNFVATLESFKDLKSGISGSRIKKLTTYALDHIDIESKIISLIIDYSRLCPDSHKLGSLYIIDSIGRAYLDETRSNSNSSSNKPGTCAHAINTLGEVIQELLSDAIAKSNQDHKEKIRALLDIWDRSGLFQKSYLNAIRSKCFAMD	1.1

[a] Nrd1 CID R28D (domain or fragment) MQQDDDFQNFVATLESFKDLKSGISGSDIKKLTTYALDHIDIESKIISLIIDYSRLCPDSHKLGSLYIIDSIGRAYLDETRSNSNSSSNKPGTCAHAINTLGEVIQELLSDAIAKSNQDHKEKIRMLLDIWDRSGLFQKSYLNAIRSKCFAMD
[b] Nrd1 CID I130N (domain or fragment) MQQDDDFQNFVATLESFKDLKSGISGSRIKKLTTYALDHIDIESKIISLIIDYSRLCPDSHKLGSLYIIDSIGRAYLDETRSNSNSSSNKPGTCAHAINTLGEVIQELLSDAIAKSNQDHKEKIRMLLDNWDRSGLFQKSYLNAIRSKCFAMD
Given the listed items, does a or b have the lesser reported Kd? Lab log: write the label of the selected item as the result.
b

Origin of values: paper PMC7110113
